Cited source for all entries: the supplement of paper PMC12494721

# System: Escherichia coli IAI1
# method: fold change of Cadaverine concentration vs plate DMSO controls (fold change (ratio)); higher = more amine produced, active = hit call of the paper (significant change in both replicates, either direction)
# experimentalParameters: incubation time: 27 h, anaerobic, 37 °C
Counter-ions that a name gives are not always drawn.

compound	fold change of Cadaverine concentration
COc1cc2nc(N3CCN(C(=O)C4CCCO4)CC3)nc(N)c2cc1OC (configuration not stated) [Terazosin hydrochloride] (20 µM)	1
CN[C@@H]1[C@H](O[C@H]2[C@H](O[C@H]3[C@H](O)[C@@H](O)[C@H](N=C(N)N)[C@@H](O)[C@@H]3N=C(N)N)O[C@@H](C)[C@]2(O)C=O)O[C@@H](CO)[C@H](O)[C@H]1O [Streptomycin sulfate] (20 µM)	1.03
Cc1ccccc1OCC(O)CO (configuration not stated) [Mephenesin] (20 µM)	0.927
Cc1ccc(NC(=O)c2ccc(CN3CCN(C)CC3)cc2)cc1Nc1nccc(-c2cccnc2)n1 [Imatinib] (20 µM)	0.95
O=C(O)CCNC(=O)c1ccccc1 [Betamipron] (20 µM)	1.06
O=C(O)CCC(=O)Nc1ccc(S(=O)(=O)Nc2nccs2)cc1 [Succinylsulfathiazole] (20 µM)	0.991
CNCCC(Oc1ccc(C(F)(F)F)cc1)c1ccccc1 (configuration not stated) [Fluoxetine hydrochloride] (20 µM)	1.19

###

# System: Escherichia coli IAI1
# method: growth (OD595) fold change vs plate DMSO controls (fold change (ratio)); higher = more growth
# experimentalParameters: incubation time: 27 h, anaerobic, 37 °C
Counter-ions that a name gives are not always drawn.
Parameter threshold = 1. Response is met when growth meets or exceeds it, else not met.

compound	labelClass
CCN1CCN(C(=O)N[C@@H](C(=O)N[C@@H]2C(=O)N3C(C(=O)O)=C(CSc4nnnn4C)CS[C@H]23)c2ccc(O)cc2)C(=O)C1=O [Cefoperazone dihydrate] (20 µM)	not met
OC(CCCN1CCCCC1)(c1ccccc1)c1ccccc1 [Diphenidol hydrochloride] (20 µM)	met
CC(C)NNC(=O)c1ccncc1 [Iproniazide phosphate] (20 µM)	met
O=C(O)CCC(=O)Nc1ccc(S(=O)(=O)Nc2nccs2)cc1 [Succinylsulfathiazole] (20 µM)	met
O=c1[nH]cc(F)c(=O)[nH]1 [5-fluorouracil] (20 µM)	not met
CCc1ccc(CCOc2ccc(CC3SC(=O)NC3=O)cc2)nc1 (configuration not stated) [Pioglitazone] (20 µM)	not met

###

# Tested on: Ruminococcus gnavus DSM 108212
# method: fold change of 2-Phenylethylamine concentration vs plate DMSO controls (fold change (ratio)); higher = more amine produced, active = hit call of the paper (significant change in both replicates, either direction)
# experimentalParameters: incubation time: 27 h, anaerobic, 37 °C
Counter-ions that a name gives are not always drawn.
Parameter threshold = 1. Response is YES when fold change of 2-Phenylethylamine concentration meets or exceeds it, else NO.

molecule	systemTested	labelClass
CCCCOC(=O)c1ccc(N)cc1 [Butamben] (20 µM)	Ruminococcus gnavus DSM 108212	NO
CCCCC(=O)N(Cc1ccc(-c2ccccc2-c2nnn[nH]2)cc1)[C@H](C(=O)O)C(C)C [Valsartan] (20 µM)	Ruminococcus gnavus DSM 108212	YES
O=C(NCCN1CCOCC1)c1ccc(Cl)cc1 [Moclobemide] (20 µM)	Ruminococcus gnavus DSM 108212	YES
CN1CCc2c(c3ccccc3n2Cc2ccccc2)C1 [Mebhydroline 1,5-naphtalenedisulfonate] (20 µM)	Ruminococcus gnavus DSM 108212	NO
CCOCCn1c(N2CCCN(C)CC2)nc2ccccc21 [Emedastine difumarate] (20 µM)	Ruminococcus gnavus DSM 108212	YES
N=c1ccn2c(n1)O[C@H]1[C@H](O)[C@@H](CO)O[C@H]12 [Ancitabine hydrochloride] (20 µM)	Ruminococcus gnavus DSM 108212	NO
CC[C@H](C)C(=O)O[C@H]1C[C@H](O)C=C2C=C[C@H](C)[C@H](CC[C@@H](O)C[C@@H](O)CC(=O)O)[C@H]21 [Pravastatin] (20 µM)	Ruminococcus gnavus DSM 108212	YES
CC(C)COC(=O)OCN1C(=O)CN(CCN2CC(=O)N(COC(=O)OCC(C)C)C(=O)C2)CC1=O [Sobuzoxane] (20 µM)	Ruminococcus gnavus DSM 108212	YES
COc1cccc2c1C(=O)c1c(O)c3c(c(O)c1C2=O)C[C@@](O)(C(C)=O)C[C@@H]3O[C@H]1C[C@H](N)[C@H](O)[C@H](C)O1 [Daunorubicin hydrochloride] (20 µM)	Ruminococcus gnavus DSM 108212	NO
CN(C)CCCN1c2ccccc2CCc2ccccc21 [Imipramine hydrochloride] (20 µM)	Ruminococcus gnavus DSM 108212	NO
CC(C)(C)c1ccc(C(O)CCCN2CCC(C(O)(c3ccccc3)c3ccccc3)CC2)cc1 (configuration not stated) [Terfenadine] (20 µM)	Ruminococcus gnavus DSM 108212	NO
COc1cc(NS(=O)(=O)c2ccc(N)cc2)nc(OC)n1 [Sulfadimethoxine] (20 µM)	Ruminococcus gnavus DSM 108212	YES
Nc1nc(O)c2ncn(CCC(CO)CO)c2n1 [Penciclovir] (20 µM)	Ruminococcus gnavus DSM 108212	YES
C[C@@H](O)[C@H]1C(=O)N2C(C(=O)O)=C(S[C@@H]3CN[C@H](CNS(N)(=O)=O)C3)[C@H](C)[C@H]12 [Doripenem monohydrate] (20 µM)	Ruminococcus gnavus DSM 108212	NO

###

# System: Ruminococcus gnavus DSM 108212
# method: fold change of Tryptamine concentration vs plate DMSO controls (fold change (ratio)); higher = more amine produced, active = hit call of the paper (significant change in both replicates, either direction);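 for the amine columns active = adjusted P below 0.05 in both replicates with a change the same way and a mean fold change under 0.8 or over 1.25; inactive = the rest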
# experimentalParameters: incubation time: 27 h, anaerobic, 37 °C
Where a name gives a salt, the structure may show the parent alone.
Classes used: active, inactive

compound	labelClass
N[C@@H](C(=O)N[C@@H]1C(=O)N2C(C(=O)O)=C(Cl)CC[C@H]12)c1ccccc1 [Loracarbef] (20 µM)	active
Cn1c(=O)c2c(ncn2C)n(C)c1=O [Caffeine] (20 µM)	inactive
CN[C@H](CC(C)C)C(=O)N[C@H]1C(=O)N[C@@H](CC(N)=O)C(=O)N[C@H]2C(=O)N[C@H]3C(=O)N[C@H](C(=O)N[C@H](C(=O)O)c4cc(O)cc(O)c4-c4cc3ccc4O)[C@H](O)c3ccc(c(Cl)c3)Oc3cc2cc(c3O[C@@H]2O[C@H](CO)[C@@H](O)[C@H](O)[C@H]2O[C@H]2C[C@](C)(N)[C@H](O)[C@H](C)O2)Oc2ccc(cc2Cl)[C@H]1O [Vancomycin hydrochloride] (20 µM)	active
CC(=O)Oc1cccc2c1C(=O)c1c(OC(C)=O)cc(C(=O)O)cc1C2=O [Diacerein] (20 µM)	inactive
O=C(NCC1CCCCN1)c1cc(OCC(F)(F)F)ccc1OCC(F)(F)F (centres undefined) [Flecainide acetate] (20 µM)	inactive
CCCc1ncc(C[n+]2ccccc2C)c(N)n1 [Amprolium hydrochloride] (20 µM)	inactive
COc1cc(C(=O)OCCCN2CCCN(CCCOC(=O)c3cc(OC)c(OC)c(OC)c3)CC2)cc(OC)c1OC [Dilazep dihydrochloride] (20 µM)	inactive
CC(C(=O)O)c1ccc(C(=O)c2cccs2)cc1 (centres undefined) [Suprofen] (20 µM)	inactive
CC(C)[C@H](N)C(=O)OCC(CO)OCn1cnc2c(=O)nc(N)[nH]c21 (some centres undefined) [Valganciclovir hydrochloride] (20 µM)	inactive
COC(=O)C1=C(C)NC(C)=C(C(=O)OC2CCCN(Cc3ccccc3)C2)C1c1cccc([N+](=O)[O-])c1 (centres undefined) [Benidipine hydrochloride] (20 µM)	inactive
CC(CN(C)C)C(C)(O)Cc1ccc(Cl)cc1 (centres undefined) [Clobutinol hydrochloride] (20 µM)	inactive
CCCNC(=O)NS(=O)(=O)c1ccc(Cl)cc1 [Chlorpropamide] (20 µM)	inactive
CC12CC3CC(C)(C1)CC(N)(C3)C2 [Memantine hydrochloride] (20 µM)	inactive
C[C@@H](CN1CC(=O)NC(=O)C1)N1CC(=O)NC(=O)C1 [Dexrazoxane hydrochloride] (20 µM)	inactive

###

# System: Escherichia coli IAI1
# method: fold change of Cadaverine concentration vs plate DMSO controls (fold change (ratio)); higher = more amine produced, active = hit call of the paper (significant change in both replicates, either direction)
# experimentalParameters: incubation time: 27 h, anaerobic, 37 °C
Structures can show the parent of a compound that is named as a salt.
Parameter threshold = 1. Response is 1 when fold change of Cadaverine concentration meets or exceeds it, else 0.

molecule	labelClass
O=C(O)c1cc(=O)[nH]c(=O)[nH]1 [Orotic acid] (20 µM)	1
O=S(=O)(c1cccc2cnccc12)N1CCCNCC1 [Fasudil Hydrochloride] (20 µM)	1
O=c1[nH]c(=O)n(C2CCCO2)cc1F (stereo not drawn) [Tegafur] (20 µM)	0

###

# Tested on: Klebsiella aerogenes DSM 30053
# method: fold change of Cadaverine concentration vs plate DMSO controls (fold change (ratio)); higher = more amine produced, active = hit call of the paper (significant change in both replicates, either direction)
# experimentalParameters: incubation time: 27 h, anaerobic, 37 °C
Where a name gives a salt, the structure may show the parent alone.
Below is a list of entries, each paired with its recorded fold change of Cadaverine concentration value.

compound	fold change of Cadaverine concentration
O=C1NCCN1c1ncc([N+](=O)[O-])s1 [Niridazole] (20 µM)	1.02
NNCCc1ccccc1 [Phenelzine sulfate] (20 µM)	1.03
CCOC(=O)c1ccc(C#Cc2ccc3c(c2)C(C)(C)CCS3)nc1 [Tazarotene] (20 µM)	1.04
COc1ccc(CN(CCN(C)C)c2ccccn2)cc1 [Pyrilamine maleate] (20 µM)	1.04
C[C@]12CC[C@@H]3c4ccc(O)cc4CC[C@H]3[C@@H]1C[C@@H](O)[C@@H]2O [Estriol] (20 µM)	1.02
